The entries below are paired with their reported D4 Receptor Binding Assay % inhibition (10^−7 M).
- target.desc: D4 human receptors (Homo sapiens)
- Construct: expressed in transfected cells; host or cells: CHO cells
- Sequence (P21917 1-419): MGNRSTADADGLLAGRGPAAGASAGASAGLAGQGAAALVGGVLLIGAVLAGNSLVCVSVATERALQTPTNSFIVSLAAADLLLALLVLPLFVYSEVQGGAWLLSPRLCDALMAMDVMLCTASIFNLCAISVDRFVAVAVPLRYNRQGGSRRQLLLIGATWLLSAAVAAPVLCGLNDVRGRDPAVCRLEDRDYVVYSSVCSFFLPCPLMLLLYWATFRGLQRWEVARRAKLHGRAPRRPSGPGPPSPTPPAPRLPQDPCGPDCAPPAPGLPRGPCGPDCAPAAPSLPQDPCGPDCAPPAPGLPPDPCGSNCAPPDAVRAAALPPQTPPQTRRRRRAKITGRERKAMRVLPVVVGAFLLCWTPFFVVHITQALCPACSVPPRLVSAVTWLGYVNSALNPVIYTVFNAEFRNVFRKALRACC
- test.name: D4 Radioligand Receptor Binding Assay ([3H] YM-09151-2, CHO cell membranes)
- stated.conditions: compound 10^−7 M, singlicate, [3H] YM-09151-2 0.15-0.25 nM
Just the number please, in %, no unit attached.

Solved cases (3 shown):
COc1ccccc1N1CCN(C/C=C/Cn2c(=O)n(CCNS(C)(=O)=O)c3ccccc32)CC1 | 39
O=c1n(CCO)c2ccccc2n1CCN1CC=C(c2ccccc2)CC1 | 78
COCCn1c(=O)n(CCN2CC=C(c3ccccc3)CC2)c2ccccc21 | 58

For O=c1n(C/C=C\CN2CCc3c([nH]c4ccccc34)C2)c2ccccc2n1CCN1CCCCC1 on D4 human receptors (Homo sapiens), measured D4 Receptor Binding Assay % inhibition (10^−7 M) was 94

----------
- target.desc: D4 human receptors (Homo sapiens, UniProt P21917)
- Construct: expressed in transfected cells; host or cells: CHO cells
- test.name: D4 Radioligand Receptor Binding Assay ([3H] YM-09151-2, CHO cell membranes)
- stated.conditions: compound 10^−7 M, singlicate, [3H] YM-09151-2 0.15-0.25 nM
endpoint.label: D4 Receptor Binding Assay % inhibition (10^−7 M) (%)
Just the number please, in %, no unit attached.

O=c1n(CCO)c2ccccc2n1CCCCN1CCN(c2ccccn2)CC1 [Compound 59] | 51
CS(=O)(=O)NCCn1c(=O)n(C/C=C\CN2CCc3c([nH]c4ccccc34)C2)c2ccccc21 [Compound 501] | 63

For O=c1n(CCCCN2CCc3c([nH]c4ccccc34)C2)c2ccccc2n1CCN1CCCCC1 [Compound 26] the compound record lists D4 Receptor Binding Assay % inhibition (10^−7 M) as 94

For COc1ccccc1N1CCN(CCCCn2c(=O)n(CCO)c3ccccc32)CC1 [Compound 74] the compound record lists D4 Receptor Binding Assay % inhibition (10^−7 M) as 62

For O=c1n(C/C=C\CN2CCc3c([nH]c4ccccc34)C2)c2ccccc2n1CCO [Compound 367] the compound record lists D4 Receptor Binding Assay % inhibition (10^−7 M) as 90

----------
The entries below are paired with their reported inhibition at 10 µM.
- target.desc: 5-HT1A (Homo sapiens, UniProt P08908)
- test.name: 5-HT1 Functional Assay (cAMP) in CHO/5-HT1A cells
- Type: cell-based
- Parameters: expressed in transfected cells; host or cells: CHO/5-HT1A cells
Just the number please, in %, no unit attached.

O=c1n(C/C=C/CN2CCN(c3cccc(C(F)(F)F)c3)CC2)c2ccccc2n1CCO | 82
O=c1n(CCN2CCOCC2)c2ccccc2n1CCN1CCN(c2cccc(C(F)(F)F)c2)CC1 | 82
CCNC(=O)OCCn1c(=O)n(C/C=C\CN2CC=C(c3ccccc3)CC2)c2ccccc21 | 60
CS(=O)(=O)NCCn1c(=O)n(C/C=C/CN2CCN(c3cccc(C(F)(F)F)c3)CC2)c2ccccc21 | 87
CCNC(=O)OCCn1c(=O)n(C/C=C/CN2CC=C(c3ccccc3)CC2)c2ccccc21 | 56

Next compound, inhibition at 10 µM to be filled in.
For O=c1n(C/C=C/CN2CCN(c3cccc(Cl)c3)CC2)c2ccccc2n1CCN1CCOCC1 the compound record lists inhibition at 10 µM as 57

----------
- target.desc: 5-HT1A (Homo sapiens)
- test.name: 5HT1A Radioligand Receptor Binding Assay ([3H]-8-OH-DPAT, CHO cell membranes)
- Set-up: expressed in transfected cells; host or cells: CHO cells
- stated.conditions: [3H]-8-OH-DPAT; CHO membranes, human 5-HT1A; read-out: 5-HT1A Receptor Binding IC50
endpoint.label: pIC50
Please report pIC50 as the negative decimal logarithm of the molar concentration, giving only the number.

Cc1cccc(N2CCN(C/C=C/Cn3c(=O)n(CCNS(C)(=O)=O)c4ccccc43)CC2)c1 | 8.02
O=c1n(C/C=C\CN2CCN(c3cccc(Cl)c3)CC2)c2ccccc2n1CCO | 7.82
Cc1cccc(N2CCN(C/C=C\Cn3c(=O)n(CCNS(C)(=O)=O)c4ccccc43)CC2)c1C | 9.23
CS(=O)(=O)NCCn1c(=O)n(C/C=C\CN2CCN(c3cccc(C(F)(F)F)c3)CC2)c2ccccc21 | 8.55

For O=c1n(C/C=C/CN2CCN(c3cccc(C(F)(F)F)c3)CC2)c2ccccc2n1CCO the compound record lists pIC50 as 8.17

For CC(=O)NCCn1c(=O)n(C/C=C/CN2CCN(c3cccc(C(F)(F)F)c3)CC2)c2ccccc21 the compound record lists pIC50 as 7.96

----------
- target.desc: 5-HT1A (Homo sapiens)
- Sequence (P08908 1-422): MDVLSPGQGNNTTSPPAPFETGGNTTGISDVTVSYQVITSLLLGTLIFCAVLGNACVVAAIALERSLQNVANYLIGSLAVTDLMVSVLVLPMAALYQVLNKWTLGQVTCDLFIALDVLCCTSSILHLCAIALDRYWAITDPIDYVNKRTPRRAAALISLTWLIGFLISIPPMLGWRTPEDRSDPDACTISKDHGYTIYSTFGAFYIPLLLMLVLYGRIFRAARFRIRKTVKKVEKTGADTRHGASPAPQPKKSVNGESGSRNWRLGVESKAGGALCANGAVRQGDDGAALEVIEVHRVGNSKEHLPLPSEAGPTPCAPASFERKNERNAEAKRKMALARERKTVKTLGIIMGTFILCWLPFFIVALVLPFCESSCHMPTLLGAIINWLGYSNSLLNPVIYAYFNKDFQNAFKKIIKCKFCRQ
- test.name: 5HT1A Radioligand Receptor Binding Assay ([3H]-8-OH-DPAT, CHO cell membranes)
- Parameters: expressed in transfected cells; host or cells: CHO cells
- stated.conditions: compound 10^−7 M, singlicate; [3H]-8-OH-DPAT 0.6-0.7 nM; CHO membranes, human 5-HT1A
endpoint.label: 5-HT1A Receptor Binding Assay % inhibition (10^−7 M) (%)
Just the number please, in %, no unit attached.

Solved cases (5 shown):
O=c1n(C/C=C/CN2CCN(c3ncccn3)CC2)c2ccccc2n1CCN1CCCCC1 | 78
O=c1n(CCO)c2ccccc2n1CCCCN1CC=C(c2ccccc2)CC1 | 52
O=c1n(CCCCN2CCN(c3cccc(C(F)(F)F)c3)CC2)c2ccccc2n1CCN1CCCCC1 | 89
CCNC(=O)OCCn1c(=O)n(CCCCN2CCN(c3ccccc3C)CC2)c2ccccc21 | 85
O=c1n(CCCCN2CC=C(c3ccccc3)CC2)c2ccccc2n1CCN1CCCCC1 | 57

For COc1ccccc1N1CCN(C/C=C/Cn2c(=O)n(CCNS(C)(=O)=O)c3ccccc32)CC1 the molecule record lists 5-HT1A Receptor Binding Assay % inhibition (10^−7 M) as 97

For CS(=O)(=O)NCCn1c(=O)n(C/C=C/CN2CCN(c3ccc(Cl)c(Cl)c3)CC2)c2ccccc21 the molecule record lists 5-HT1A Receptor Binding Assay % inhibition (10^−7 M) as 73

For CCNC(=O)OCCn1c(=O)n(CCCCN2CCN(c3ccccc3)CC2)c2ccccc21 the molecule record lists 5-HT1A Receptor Binding Assay % inhibition (10^−7 M) as 67

For O=c1n(C/C=C\CN2CCN(c3ccc(Cl)c(Cl)c3)CC2)c2ccccc2n1CCO the molecule record lists 5-HT1A Receptor Binding Assay % inhibition (10^−7 M) as 59

For O=c1n(CCCCN2CCN(c3ncccn3)CC2)c2ccccc2n1CCN1CCCCC1 the molecule record lists 5-HT1A Receptor Binding Assay % inhibition (10^−7 M) as 48

For CCNC(=O)OCCn1c(=O)n(CCCCN2CC=C(c3ccccc3)CC2)c2ccccc21 the molecule record lists 5-HT1A Receptor Binding Assay % inhibition (10^−7 M) as 52

----------
The entries below are paired with their reported 5-HT1A Receptor Binding Assay % inhibition (10^−7 M).
- target.desc: 5-HT1A (Homo sapiens)
- test.name: 5HT1A Radioligand Receptor Binding Assay ([3H]-8-OH-DPAT, CHO cell membranes)
- Design: expressed in transfected cells; host or cells: CHO cells
- stated.conditions: compound 10^−7 M, singlicate; [3H]-8-OH-DPAT 0.6-0.7 nM; CHO membranes, human 5-HT1A
Just the number please, in %, no unit attached.

Solved cases (3 shown):
O=c1n(CCCCN2CCN(c3cccc(Cl)c3)CC2)c2ccccc2n1CCN1CCCCC1 [Compound 24] | 90
O=c1n(C/C=C\CN2CCc3c([nH]c4ccccc34)C2)c2ccccc2n1CCN1CCCCC1 [Compound 316] | 72
O=c1n(CCO)c2ccccc2n1CCCCN1CCN(c2ccccc2)CC1 [Compound 56] | 63

For CCNC(=O)OCCn1c(=O)n(CCN2CCN(c3ccccc3OC)CC2)c2ccccc21 [Compound 216] the compound record lists 5-HT1A Receptor Binding Assay % inhibition (10^−7 M) as 92
